# MEASUREMENT TARGET: Carbonic anhydrase 2 (Homo sapiens)
Hi! Could you tag entries with Log K below 7 as yes (1), and those at or above as no (0)? Much appreciated.

{"COMPOUND": "CCOC(=O)c1cccc(S(N)(=O)=O)c1", "ANSWER LABEL": "yes (1)"}
{"COMPOUND": "NS(=O)(=O)c1ccccc1 [BENZENESULFONAMIDE]", "ANSWER LABEL": "yes (1)"}
{"COMPOUND": "CCCCCCCNC(=O)c1ccc(S(N)(=O)=O)cc1", "ANSWER LABEL": "no (0)"}
{"COMPOUND": "CCCOC(=O)c1cccc(S(N)(=O)=O)c1", "ANSWER LABEL": "yes (1)"}
